Listing of recorded IC50 by entry.
Test system: RT112
experimentalDetails: Inhibition of cell proliferation, RT112 human bladder cancer cells (CyQuant)
Assay type: cell-based
recordedConditions: Homo sapiens, RT-112, 96 h, 96-h culture, read-out: Bladder Cancer Cell Lines IC50 (μM) RT112
observable: IC50 (µM)

> print(dat)
                                   compound  testtarget  observable  qualifieroperator  quantitativereadout
1  CC(C)(O)CCC[C@@H](CCC(=O)C(C)(C)O)[C@H]1CC[C@H]2/C(=C/C=C3C[C@@H](O)C[C@H](O)C3)CCC[C@]12C       RT112        IC50                  >                   30
2  C=C1/C(=C\C=C2/CCC[C@@]3(C)C2CCC3[C@@H](CCCC(C)(C)O)CCC(O)C(C)(C)O)C[C@@H](O)C[C@@H]1O (stereo partly drawn)       RT112        IC50                  =                    1
3  C=C1/C(=C\C=C2/CCC[C@@]3(C)C2CCC3C2(CCCC(C)(C)O)CC2)CC(OC(C)=O)C[C@@H]1OC(C)=O (stereo partly drawn)       RT112        IC50                  =                    9
